The reported measurements were obtained from patent US20070166547A1.

System: adenosine-sensitive receptors of thrombocytes
Assay: ADP-induced aggregation of thrombocytes in vitro (Born method)
Type: cell-based, rabbit
Details: 10^−4 M; 3 min incubation; ADP 10^−5 M
In plain terms, low MA - fall of optical density of plasma, % to the standard, meaning strictly below 50%, gives Yes, and everything else gives No.

# smi, classification
measured = [
    ("O=c1[nH][nH]c(=O)c2ncccc12.[Li]", "No"),
    ("Nc1ncnc2c(=O)n([C@@H]3O[C@H](CO)[C@@H](O)[C@H]3O)[nH]c(=O)c12.[Na]", "Yes"),
    ("O=c1[nH][nH]c(=O)c2c(Br)ncnc12.[K]", "Yes"),
]

* * *

The following molecules are listed with their measured T, s after 60 minutes (prothrombin time) values.
System: plasma hemostasis
Assay: Prothrombin time after intravenous administration
Assay type: in vivo, rabbit
Settings: dose 30.0 mg/kg intravenously
endpointLabel: T, s after 60 minutes (prothrombin time) (s)

# smi, endpointLabel, readoutValue
measured = [
    ("Nc1cccc2c(=O)[nH][nH]c(=O)c12.[Na]", "T, s after 60 minutes (prothrombin time)", 11.4),
    ("O=c1[nH][nH]c(=O)c2c(Br)ncnc12.[K]", "T, s after 60 minutes (prothrombin time)", 11.4),
    ("Nc1ccnc2c(=O)n([C@@H]3O[C@H](CO)[C@@H](O)[C@H]3O)[nH]c(=O)c12", "T, s after 60 minutes (prothrombin time)", 11.3),
    ("Nc1cnc2c(=O)n([C@@H]3O[C@H](CO)[C@@H](O)[C@H]3O)[nH]c(=O)c2n1.[Na]", "T, s after 60 minutes (prothrombin time)", 11.3),
]

* * *

The following compounds are listed with their measured A, % after 15 minutes (coagulating activity) values.
Tested on: plasma hemostasis
Test: Autocoagulation test (coagulating activity A) after intravenous administration
Format: in vivo, rabbit
Settings: dose 30.0 mg/kg intravenously
endpointLabel: A, % after 15 minutes (coagulating activity) (%)

# smi, targetEntity, readoutValue
measured = [
    ("Nc1ccnc2c(=O)n([C@@H]3O[C@H](CO)[C@@H](O)[C@H]3O)[nH]c(=O)c12", "plasma hemostasis", 98.4),
    ("Nc1cccc2c(=O)[nH][nH]c(=O)c12.[Na]", "plasma hemostasis", 100.3),
    ("O=c1[nH][nH]c(=O)c2c(Br)ncnc12.[K]", "plasma hemostasis", 99.8),
    ("Nc1cnc2c(=O)n([C@@H]3O[C@H](CO)[C@@H](O)[C@H]3O)[nH]c(=O)c2n1.[Na]", "plasma hemostasis", 97.2),
]

* * *

Test system: aggregation of thrombocytes
Assay: ADP-induced aggregation of thrombocytes after intravenous administration (in vivo)
Set-up: species or system rabbit
Conditions: dose 15.0 mg/kg intravenously
The following compounds are listed with their measured MA, %, After 15 minutes values.

# compound, targetEntity, readoutUnit, MA, %, After 15 minutes
measured = [
    ("Nc1cccc2c(=O)[nH][nH]c(=O)c12.[Na] [Compound 15]", "aggregation of thrombocytes", "%", 42.8),
    ("Nc1cnc2c(=O)n([C@@H]3O[C@H](CO)[C@@H](O)[C@H]3O)[nH]c(=O)c2n1.[Na] [Compound 21]", "aggregation of thrombocytes", "%", 43.5),
    ("O=c1[nH][nH]c(=O)c2c(Br)ncnc12.[K] [Compound 37]", "aggregation of thrombocytes", "%", 42.9),
    ("Nc1ccnc2c(=O)n([C@@H]3O[C@H](CO)[C@@H](O)[C@H]3O)[nH]c(=O)c12 [Compound 2]", "aggregation of thrombocytes", "%", 44.2),
]

* * *

The following molecules are listed with their measured Nitrites in liver, Control + Compound values.
Tested on: metabolism of nitrogen oxide
Experiment: Morphine abstinence model: nitrites and nitrates NOX− in blood plasma, liver and brain
Format: in vivo, rats Wistar
Conditions: compound alone 20.0 mg/kg intramuscularly

# molecule, Nitrites in liver, Control + Compound
rows = [
    ("O=c1[nH][nH]c(=O)c2ncccc12.[Li] [Compound 6]", "0.245 ± 0.010 nmol/mg of protein"),
    ("O=c1[nH][nH]c(=O)c2c(Br)ncnc12.[K] [Compound 37]", "0.262 ± 0.018 nmol/mg of protein"),
    ("O=c1[nH][nH]c(=O)c2nccnc12.[Li] [Compound 25]", "0.307 ± 0.012 nmol/mg of protein"),
    ("Nc1cccc2c(=O)[nH][nH]c(=O)c12.[Na] [Compound 15]", "0.259 ± 0.019 nmol/mg of protein"),
]

* * *

Tested on: plasma hemostasis
Assay: Thrombin time after intravenous administration
Assay type: in vivo, rabbit
Settings: dose 30.0 mg/kg intravenously
Marks after values point to notes of the source that are not given here.

# compound, T2, s after 30 minutes (thrombin time)
records = [
    ("O=c1[nH][nH]c(=O)c2c(Br)ncnc12.[K] [Compound 37]", "20.3* s"),
    ("Nc1cccc2c(=O)[nH][nH]c(=O)c12.[Na] [Compound 15]", "20.5* s"),
    ("Nc1cnc2c(=O)n([C@@H]3O[C@H](CO)[C@@H](O)[C@H]3O)[nH]c(=O)c2n1.[Na] [Compound 21]", "18.8* s"),
    ("Nc1ccnc2c(=O)n([C@@H]3O[C@H](CO)[C@@H](O)[C@H]3O)[nH]c(=O)c12 [Compound 2]", "18.4* s"),
]

* * *

System: adenosine-sensitive receptors of thrombocytes
Assay: ADP-induced aggregation of thrombocytes in vitro (Born method)
Type: cell-based, rabbit
Settings: 10^−6 M; 3 min incubation; ADP 10^−5 M
Procedure: The compounds according to the invention were studied for the effect of aggregation of thrombocytes induced by a preliminary introduction of a solution of an aggregation inductor with a competing introduction of the compounds according to the invention. The aggregation of thrombocytes was studied by the Born method based on determination of the changes in the optical density of plasma enriched with thrombocytes after its incubation with an aggregation inductor. […]
endpointLabel: MA - drop of optical density, % compared to control (%)

# molecule, readoutValue
data = [
    ("Nc1cnc2c(=O)n([C@@H]3O[C@H](CO)[C@@H](O)[C@H]3O)[nH]c(=O)c2n1.[Na] [Compound 21]", 49.6),
    ("O=c1[nH][nH]c(=O)c2ncccc12.[Li] [Compound 6]", 51.2),
    ("Nc1ccnc2c(=O)n([C@@H]3O[C@H](CO)[C@@H](O)[C@H]3O)[nH]c(=O)c12 [Compound 2]", 50.1),
    ("O=c1[nH][nH]c(=O)c2nccnc12.[Li] [Compound 25]", 50.3),
    ("O=c1[nH]n([C@@H]2O[C@H](CO)[C@@H](O)[C@H]2O)c(=O)c2nccc(O)c12.[Na].[Na] [Compound 4]", 50.6),
    ("O=c1[nH][nH]c(=O)c2c(Br)ncnc12.[K] [Compound 37]", 48.1),
    ("Nc1cccc2c(=O)[nH][nH]c(=O)c12.[Na] [Compound 15]", 47.3),
    ("Nc1ncnc2c(=O)n([C@@H]3O[C@H](CO)[C@@H](O)[C@H]3O)[nH]c(=O)c12.[Na] [Compound 31]", 47.5),
    ("O=c1[nH]n([C@@H]2O[C@H](CO)[C@@H](O)[C@H]2O)c(=O)c2ccccc12.[Na] [Compound 9]", 49.4),
    ("Nc1ncc2c(=O)[nH][nH]c(=O)c2n1 [Compound 36]", 49.3),
]

* * *

System: indicator enzymes in blood plasma
Assay: Morphine abstinence model: indicator enzymes AST, ALT, γ-GTP in blood plasma
Format: in vivo, rats Wistar
Conditions: compound alone 20.0 mg/kg intramuscularly
The following compounds are listed with their measured γ-GTP, Ci, mE/l, Control + compound values.

# smi, γ-GTP, Ci, mE/l, Control + compound
measured = [
    ("O=c1[nH][nH]c(=O)c2ncccc12.[Li]", "8.27 ± 2.12 mE/l"),
    ("Nc1cccc2c(=O)[nH][nH]c(=O)c12.[Na]", "7.03 ± 2.82 mE/l"),
    ("O=c1[nH][nH]c(=O)c2c(Br)ncnc12.[K]", "8.14 ± 2.64 mE/l"),
    ("O=c1[nH][nH]c(=O)c2nccnc12.[Li]", "7.57 ± 1.93 mE/l"),
]

* * *

Tested on: aggregation of thrombocytes
Experiment: ADP-induced aggregation of thrombocytes after intravenous administration (in vivo)
Parameters: species or system rabbit
Settings: dose 15.0 mg/kg intravenously
endpointLabel: MA, %, After 120 minutes (%)

# molecule, endpointLabel, readoutUnit, readoutValue
rows = [
    ("Nc1cnc2c(=O)n([C@@H]3O[C@H](CO)[C@@H](O)[C@H]3O)[nH]c(=O)c2n1.[Na] [Compound 21]", "MA, %, After 120 minutes", "%", 49.1),
    ("Nc1ccnc2c(=O)n([C@@H]3O[C@H](CO)[C@@H](O)[C@H]3O)[nH]c(=O)c12 [Compound 2]", "MA, %, After 120 minutes", "%", 49.2),
    ("O=c1[nH][nH]c(=O)c2c(Br)ncnc12.[K] [Compound 37]", "MA, %, After 120 minutes", "%", 48.7),
    ("Nc1cccc2c(=O)[nH][nH]c(=O)c12.[Na] [Compound 15]", "MA, %, After 120 minutes", "%", 48.3),
]
